# Tested on: K4 kissing-loop RNA reporter;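 also: bound reporter read as fluorescence of individual clusters on recovered sequencing chips by microscopy, with normalized cluster intensities fitted with a binding model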
# measurement_protocol: apparent KD of K4 kissing-loop reporter; higher = weaker reporter binding
# protocol_conditions: Eterna round: R107; input ligand: none
Item-by-item account of apparent KD of K4 kissing-loop reporter
Please state the figure in nM; there is no need to write the unit.

record_sequence | unit_name | apparent KD of K4 kissing-loop reporter
CCUAUCUCAUACGAUACCAGUGAAAUAAUAUUUAUAAGCAGUGAUGUUGCAUUCCAAGAACACCCUUGGCAGCGUAUGGGAUAGG [Ex Theophylline B K4 19] | nM | 178
CCGGGCGGCCGAAGGAGCGGGCGGGCCCGAGUGAUGUUCGGGUGGACCGUGAGGUCCGGUGCCCAGGUAGGUCGCGGUUCCGCCC [#2 Same State - Arginine B Attempt #7 (HarryS)] | nM | 157
AAUGUACAAGUGAUGUUUGUACUUUCCGAAGGAGCGUCUAAUAAGACAGGUAGGUCGCGGAUUCUCUUAAUUAUCAGGUCAUUAA [JR_ExcArginiA_Sub017] | nM | 86.2

Here is another sequence to look at.
Using known records, supply apparent KD of K4 kissing-loop reporter for GGUUUUAACCGCAGUGAUGUUGCGUUGAAACGAGGACCGGUACGGCCGCCACUCGAAAAGAAGCGGCCAAAUUAAAAUCGUAAAG [Exclusion Tryptophan A GF 23]
144
